target: Cannabinoid receptor 2 (Homo sapiens, UniProt P34972); assay: Agonist activity at human CB2 receptor expressed CHO cells by [35S]GTPgamma binding assay; type: functional, cell-based
Sequence (P34972 whole entry): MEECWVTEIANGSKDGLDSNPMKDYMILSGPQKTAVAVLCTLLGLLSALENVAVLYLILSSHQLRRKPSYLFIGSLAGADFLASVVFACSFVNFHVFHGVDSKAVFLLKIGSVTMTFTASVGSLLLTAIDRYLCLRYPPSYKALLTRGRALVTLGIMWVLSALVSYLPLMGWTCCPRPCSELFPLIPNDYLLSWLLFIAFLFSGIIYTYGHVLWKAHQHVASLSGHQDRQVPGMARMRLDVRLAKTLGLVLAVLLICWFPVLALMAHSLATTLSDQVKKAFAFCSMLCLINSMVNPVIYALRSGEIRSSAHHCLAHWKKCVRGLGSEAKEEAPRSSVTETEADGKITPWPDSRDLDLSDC
measure: EC50 (nM)
Express the result in nM but write the number alone.

Entry COc1ccc(C(=O)c2c(C)n(CCN3CCOCC3)c3cc(I)ccc23)cc1 : reported EC50 = ?
76.6

* * *

molecular target: Cannabinoid receptor 2 (Homo sapiens); assay: Inverse agonist activity at human recombinant CB2 receptor expressed CHO cells membrane by [35S]GTPgamma binding assay; assay type: functional, cell membranes
Each item that follows carries a reported pEC50.
Formally, pEC50 is defined as -log10 of the concentration c, with c in mol/L.

COCCN1C(=O)/C(=N\NC(=O)c2ccccc2)c2ccc(OC)cc21 = 6.31
CCCCCN1C(=O)/C(=N\NC(=O)CC(C)C)c2ccc(OC)cc21 = 7.93
CCCCCN1C(=O)/C(=N\NC(=O)C(C)(C)C)c2ccc(OC)cc21 = 8.00
CCCCCN1C(=O)/C(=N\NC(=O)CC2CCCCC2)c2ccc(OC)cc21 = 7.37
COc1ccc2c(c1)N(CC1CCCCC1)C(=O)/C2=N\NC(=O)C1CCCCC1 = 7.15

Kindly review the next molecule as well.
Entry CCCCCN1C(=O)/C(=N\NC(=O)C(C)(C)O)c2ccc(OC)cc21 : reported pEC50 = ?
7.83
